Measured DC50 accompanies every entry in the list below.
Target: Cbl-b (Homo sapiens, UniProt Q13191)
Construct: Cbl-b-HiBit KI Jurkat Cells were purchased from Promega; host or cells: Cbl-b-HiBiT knock-in Jurkat cells
Sequence (Q13191 whole entry): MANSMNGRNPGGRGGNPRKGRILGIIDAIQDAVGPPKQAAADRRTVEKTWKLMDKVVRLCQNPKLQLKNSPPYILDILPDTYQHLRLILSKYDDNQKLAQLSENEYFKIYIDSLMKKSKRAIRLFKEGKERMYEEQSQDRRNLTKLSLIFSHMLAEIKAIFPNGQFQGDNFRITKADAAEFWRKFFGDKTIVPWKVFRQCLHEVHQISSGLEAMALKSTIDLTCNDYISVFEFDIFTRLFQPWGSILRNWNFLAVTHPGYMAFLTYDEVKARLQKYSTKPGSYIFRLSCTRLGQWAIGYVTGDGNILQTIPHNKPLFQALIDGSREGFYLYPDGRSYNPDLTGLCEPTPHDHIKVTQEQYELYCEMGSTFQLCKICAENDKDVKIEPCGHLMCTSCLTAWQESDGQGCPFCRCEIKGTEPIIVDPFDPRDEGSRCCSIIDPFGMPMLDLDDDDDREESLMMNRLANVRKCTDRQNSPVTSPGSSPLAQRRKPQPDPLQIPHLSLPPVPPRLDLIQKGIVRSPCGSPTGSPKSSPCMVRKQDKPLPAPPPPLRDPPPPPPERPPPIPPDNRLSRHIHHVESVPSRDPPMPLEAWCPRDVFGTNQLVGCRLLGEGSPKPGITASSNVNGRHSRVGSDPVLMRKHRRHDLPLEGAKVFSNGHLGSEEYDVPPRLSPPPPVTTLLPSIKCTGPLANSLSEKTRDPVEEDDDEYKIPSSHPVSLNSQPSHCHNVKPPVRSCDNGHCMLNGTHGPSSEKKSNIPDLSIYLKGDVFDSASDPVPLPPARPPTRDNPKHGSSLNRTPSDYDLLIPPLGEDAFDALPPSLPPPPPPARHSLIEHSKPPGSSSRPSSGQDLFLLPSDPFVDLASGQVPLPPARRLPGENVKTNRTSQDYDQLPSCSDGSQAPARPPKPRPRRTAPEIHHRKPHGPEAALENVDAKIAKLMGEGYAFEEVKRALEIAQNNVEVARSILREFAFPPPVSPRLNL
Experiment: Cbl-b Degradation Method B (Nano-Glo HiBiT lytic detection)
Format: cell-based
Conditions: Cbl-b-HiBit KI Jurkat Cells, incubated at least 6-24 hours; half maximal degradation; read-out: Cbl-b Degredation Method B IC50

Some entries whose results are on file:
CC1c2nc(N3CCC(CN4CCN(CC5CCN(Cc6cc7c(c(C(F)(F)F)c6)CN(c6cccc([C@]8(Cc9nncn9C)C[C@@H](C#N)C8)c6)C7=O)CC5)C(C)(C)C4)CC3)ccc2C(=O)N1C1CCC(=O)NC1=O (stereo partly drawn) [Example 287] = > 500 nM
COc1c(N2CCC(C(=O)N3CCC4(CC3)CN(c3cc5c(c(C(F)(F)F)c3)CN(c3cccc(C6(Cc7nncn7C)COC6)c3)C5=O)C4)CC2)ccc2c1CN(C1CCC(=O)NC1=O)C2=O (stereo not drawn) [Example 265] = 5 to 50 nM
Cn1cnnc1CC1(c2cccc(-n3cc4c(C(F)(F)F)cc(CN5CCC[C@H](CN6CCC[C@@H](OC7CCN(c8ccc9c(c8F)CN(C8CCC(=O)NC8=O)C9=O)CC7)C6)C5)cc4n3)c2)COC1 (stereo partly drawn) [Example 297] = > 500 nM
Cn1cnnc1CC1(c2cccc(N3Cc4c(cc(CN5CCC(C(C)(C)N6CCN(c7ccc8c(c7)C(=O)N(C7CCC(=O)NC7=O)C8=O)CC6)CC5)cc4C(F)(F)F)C3=O)c2)COC1 (stereo not drawn) [Example 59] = > 500 nM
Cn1cnnc1CC1(c2cccc(N3Cc4c(cc(CN5CCC(CC6CN(c7cccc8c7C(=O)N(C7CCC(=O)NC7=O)C8=O)C6)CC5)cc4C(F)(F)F)C3=O)c2)COC1 (stereo not drawn) [Example 99] = > 500 nM

# return recorded DC50 for entry Cn1cnnc1CC1(c2cccc(N3Cc4c(cc(CN5CCC(CN6CC7(CCN(c8ccc9c(c8)C(=O)N(C8CCC(=O)NC8=O)C9=O)CC7)C6)CC5)cc4C(F)(F)F)C3=O)c2)COC1 (stereo not drawn) [Example 81]
> 500 nM

# return recorded DC50 for entry CC1c2nc(N3CCC(O[C@H]4CC[C@H](CN5CCCN(c6cc7c(c(C(F)(F)F)c6)CN(c6cccc([C@]8(Cc9nncn9C)C[C@@H](C#N)C8)c6)C7=O)CC5)CC4)CC3)ccc2C(=O)N1C1CCC(=O)NC1=O (stereo partly drawn) [Example 180]
< 5 nM
